# Experiment: Growth inhibition of human SUIT-2 cells at 100 uM by WST-8 assay relative to control
# Type: functional
# Run parameters: read-out: GI
Observation type: inhibition of growth at 100 µM
Put your answer as a value accompanied by its unit after it.

The examples below pair each entry with its known result.
What measured inhibition of growth at 100 µM goes with COc1ccc(-c2cc(C(=O)Nc3ccc(S(N)(=O)=O)cc3)nn2-c2ccccc2)cc1 ?
78%

Continue with COc1ccc(-c2cc(C(=O)Nc3ccc(S(N)(=O)=O)cc3)nn2-c2ccccc2)cc1OC
91%

Now look at this entry.
Quick one: inhibition of growth at 100 µM of Cc1ccc(-c2cc(C(=O)Nc3ccc(S(C)(=O)=O)cc3)nn2-c2ccccc2)cc1 ?
87%

---

Property: pIC50; scope: individual molecules
# Experiment: Antiproliferative activity against human SUIT-2 cells by WST-8 assay
# Type: functional, cell-based
Remember the convention: pIC50 equals -log10 of concentration in molar.

Example entries begin here.
GET /values?readout=pIC50&item= COc1cccc2c1C(=O)c1c(O)c3c(c(O)c1C2=O)C[C@@](O)(C(C)=O)C[C@@H]3O[C@H]1C[C@H](N)[C@H](O)[C@H](C)O1 [DAUNORUBICIN]
5.05

And the next one, COc1cc(C=O)ccc1OC(=O)c1cc(-c2ccc(C)cc2)n(-c2ccc(S(N)(=O)=O)cc2)n1 ?
4.77

Next: COc1ccc(-c2cc(C(=O)Oc3ccc(C=O)cc3OC)nn2-c2ccc(S(N)(=O)=O)cc2)cc1
5.30

What do you have for COc1ccc(-c2cc(C(=O)Nc3ccc(S(C)(=O)=O)cc3)nn2-c2ccccc2)cc1 ?
4.39

Further cases:
GET /values?readout=pIC50&item= CS(=O)(=O)c1ccc(NC(=O)c2cc(-c3ccc(Cl)cc3)n(-c3ccccc3)n2)cc1
4.60

---

# Test system: HepG2
# Experiment: Antiproliferative activity against human HepG2 cells by WST-8 assay
# Type: functional, cell-based
Observation type: log10 of IC50 (log10 of the value in µM)
Units before log transform: µM; reported quantity: IC50; transform: log10.

Guide cases for log10 of IC50, answers given:
Quick check: log10 of IC50 of COc1ccc(-c2cc(C(=O)Oc3ccc(C=O)cc3OC)nn2-c2ccc(S(N)(=O)=O)cc2)cc1 ?
0.89

Request: Cc1ccc(-c2cc(C(=O)Nc3ccc(S(C)(=O)=O)cc3)nn2-c2ccccc2)cc1
1.00

Consider next the molecule COc1cccc2c1C(=O)c1c(O)c3c(c(O)c1C2=O)C[C@@](O)(C(C)=O)C[C@@H]3O[C@H]1C[C@H](N)[C@H](O)[C@H](C)O1 in the same way.
1.34

Cool, now COc1cc(C=O)ccc1OC(=O)c1cc(-c2ccccc2)n(-c2ccc(S(N)(=O)=O)cc2)n1
1.58

Others:
Any idea what log10 of IC50 was measured for NS(=O)(=O)c1ccc(NC(=O)c2cc(-c3ccccc3)n(-c3ccccc3)n2)cc1 ?
0.77

Subsequent entry: Cc1ccc(-c2cc(C(=O)Nc3ccc(S(N)(=O)=O)cc3)nn2-c2ccccc2)cc1
0.56

For COc1cc(C=O)ccc1OC(=O)c1cc(-c2ccc(C)cc2)n(-c2ccc(S(N)(=O)=O)cc2)n1 then?
0.43

Please do the same for COc1cc(C=O)ccc1OC(=O)c1cc(-c2ccc(C)cc2)n(-c2ccccc2)n1 as well.
0.95
